pIC50: −log10 of the molar value.
# merged literature set: pIC50 with Tyrosine-protein kinase JAK1 (Homo sapiens, UniProt P23458)

# annotated cases, reported pIC50 shown
Cc1ccc(NC(=O)c2cc(N3CCCC(O)C3)cc(C(F)(F)F)c2)cc1-c1ccc2c(c1)[nH]c1ncncc12 (centres unmarked): ≥ 6.30
CCS(=O)(=O)Nc1cc2c(N[C@@H]3CC[C@@](C)(O)C3(C)C)c(C(N)=O)cnn2c1 (racemic): 7.08
CCOC(=O)c1cnc2[nH]ccc2c1N[C@H]1C[C@H](NS(=O)(=O)c2cccc(C#N)c2)C1: ≥ 8.00
N#CCC1(n2cc(-c3ncnc4[nH]ccc34)cn2)CN(C2CCN(C(=O)Nc3ccc(F)cc3C(F)(F)F)CC2)C1: > 8.00
Cc1cccc(-c2cnc3[nH]ccc3c2N[C@@H]2CCCN(C(=O)CC#N)C2)n1: ≥ 8.00
Cc1cnc(Nc2ccc3c(C)n(C)nc3c2)nc1NC1CC2CN(S(C)(=O)=O)CC2C1 (centres unmarked): 8.15

Q. For Tyrosine-protein kinase JAK1 (Homo sapiens, UniProt P23458), give the measured pIC50 of the entry "O=C(NCCC(F)(F)F)c1nn(C(=O)CCc2ccccc2)c2c1CN(c1ncnc3[nH]ccc13)CC2"
A. 6.30 to 7.00

Q. For Tyrosine-protein kinase JAK1 (Homo sapiens, UniProt P23458), give the measured pIC50 of the entry CN(c1ncnc2[nH]ccc12)N1CCC[C@H](C(=O)NCC#N)C1 (single isomer, unassigned)
A. 6.00 to 7.00
